# Tested on: HL-60(TB) leukemia
# Test protocol: NCI-60 one-dose screen, 48 h (100 = growth as untreated, 0 = no growth, -100 = all killed)
# Measurement conditions: 10 µM unless noted
This is part of a sample that, as a whole, favours compounds with a hit. Of some 83,000 tested, about 20% had one in any assay.
Note to self: use 1 (yes) only for growth readings below 90%; a reading exactly at 90% still gets 0 (no).

As a guide, the following entries are already answered.
CCCC[P+](c1ccccc1)(c1ccccc1)c1ccccc1 :: 1 (yes)
CC(NNC(C)c1ccccc1)c1ccccc1 (stereo not given) :: 0 (no)
C=C1C(=O)O[C@H]2[C@H]1CC/C(COC(=O)NCCCCCCCCNC(=O)OC/C1=C/CC[C@@]3(C)O[C@H]3[C@H]3OC(=O)C(=C)[C@@H]3CC1)=C\CC[C@@]1(C)O[C@@H]21 :: 1 (yes)
C=CCS(C)(=O)=O :: 0 (no)
CC(C)(C)n1cc(-c2ccnc(NCCCNS(=O)(=O)c3cccc(F)c3)c2)c(-c2cccc(O)c2)n1 :: 1 (yes)
CO[C@@H]1[C@H](OC(=O)NC(=O)CCl)CC[C@]2(CO2)[C@H]1[C@@]1(C)O[C@@H]1CC=C(C)C :: 1 (yes)

Enquiry: Please check: growth for CC/C=C\C[C@H](F)C/C=C1/C(=O)C=C[C@@H]1C/C=C\CCCC(=O)OC , strictly under 90% or not?
Return: 1 (yes)

Enquiry: Next compound up: Cc1ccc2nc(N)nnc2c1
Return: 0 (no)
